Below: a set of entries, each annotated with reported growth.
- Test system: 786-0 renal
- Assay: NCI-60 one-dose screen, 48 h (100 = growth as untreated, 0 = no growth, -100 = all killed)
- Run conditions: 10 µM unless noted
- Experimental: Cells are grown in 96 well plates and exposed to the test compound for 48 hours. Compounds are tested at a single concentration, which is 10^-5 M for most compounds. The reported endpoint is percent growth (GI% or GIPRCNT), where numbers from 0 - 100% represent growth inhibition, and numbers from -100% - 0 represent cell death. For example, a value of 40 represents 60% growth inhibition. A value of 0 means no net growth occurred over the course of the experiment. […]
Compounds without any hit were thinned out: in the full panel of roughly 83,000, 20% have a hit.
State the answer as a number, implicitly in %.

Q: Respond only with growth recorded for CCC1=C[C@@H]2CN(C1)Cc1c([nH]c3ccccc13)[C@@](C(=O)OC)(c1cc3c(cc1OC)N(C)[C@H]1[C@@](O)(C(=O)OC)[C@H](OC(C)=O)[C@]4(CC)[C@@H]5C[C@@H]5CN5CC[C@]31[C@@H]54)C2
Ans: 11.2

Q: Fill in growth for record COc1cc(C#N)cc2[nH]c(=O)oc12
Ans: 98.7

Q: Output growth of O=C(/C=C/c1ccc(C(F)(F)F)cc1)c1ccc(Nc2nc(NCCO)nc(Nc3ccc(Cl)cc3)n2)cc1
Ans: -41

Q: Tell me measured growth for O=C1c2ccccc2C(=O)c2c1ccc1[nH]c(CCl)nc21 please.
Ans: 28.9

Q: Name the recorded growth of the item CC[C@H](C)[C@@H](C(=O)OC)n1cc(CNC(=O)[C@@H](Cc2ccccc2)NC(=O)OCc2ccccc2)nn1 in your answer.
Ans: 106
